Hey, just so you know, these numbers are from paper PMC5540273.

Each entry below lists one item and its recorded %Inh value.
test system: INSR; details: concentration: 1 μM, replicates: in singlicate; n = 1
Reply numerically in %, unit not repeated.

• CN1CCN(Cc2ccc(NC(=O)Nc3ccc(N(C)c4ccnc(Nc5ccc(CS(C)(=O)=O)cc5)n4)cc3)cc2)CC1.Cl = 42
• CN(C)c1ncnc2nc[nH]c12 = 0

Enquiry: Test system INSR; read-out %Inh; what value for CC(C)c1nc(-c2cccc(NS(=O)(=O)c3c(F)cccc3F)c2)c(-c2ccnc(Nc3ccc(N4CCOCC4)nc3)n2)s1.Cl ?;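 also: KINOMEscan kinase panel screen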
Return: 0

Enquiry: Quick one: O=C(Nc1n[nH]c2nc(-c3ccccc3)ccc12)C1CC1
Return: 0

Enquiry: Quick one: CCn1cnc2c(NCc3ccccc3)ncnc21
Return: 2

Enquiry: Quick one: Fc1cc(Cl)ccc1Nc1ccnc2cc(-c3ccc(CN4CCSCC4)o3)ccc12
Return: 0

Enquiry: Quick one: CC(=O)Nc1cn2nc(Oc3cccc(NC(=O)c4cccc(C(F)(F)F)c4)c3)ccc2n1
Return: 0

Enquiry: Quick one: CN(C)CCNS(=O)(=O)c1ccc(-c2ccnc3[nH]ccc23)cc1
Return: 0

Enquiry: Quick one: CN(c1ccc(F)c(NC(=O)c2cccc(OC(C)(C)C#N)c2Cl)c1)c1ccc2nc(NC(=O)C3CC3)sc2n1
Return: 0

Enquiry: Quick one: CCOc1nccc(-c2c(-c3ccc(F)cc3)ncn2C2CCNCC2)n1
Return: 10

Enquiry: Quick one: Cc1cccc(Nc2nc(NCCN)ncc2C(N)=O)c1
Return: 22

Enquiry: Quick one: CS(=O)(=O)c1cccc(CNc2nc(Nc3ccc4c(c3)CCC(=O)N4)ncc2C(F)(F)F)c1
Return: 16

Enquiry: Quick one: Cl.O=C(Nc1ccc(Oc2ccc3[nH]c(NC(=O)c4ccco4)nc3c2)cc1)Nc1cc(C(F)(F)F)ccc1F
Return: 52

Enquiry: Quick one: Cc1ccc(C)c(NC(=O)Nc2ccc(C)c(-c3ccc(C(=O)Nc4ccncc4)cc3)c2)c1
Return: 0

Enquiry: Quick one: COc1cc(Nc2nccc(N3CCC(NS(=O)(=O)c4ccc(NC(C)=O)cc4)CC3)n2)cc(OC)c1OC
Return: 0

Enquiry: Quick one: NCCC(NC(=O)c1cc(Br)c(-c2ccnc3[nH]ccc23)s1)c1ccccc1.O=C(O)C(F)(F)F.O=C(O)C(F)(F)F (centres unmarked)
Return: 0

Enquiry: Quick one: O=C(O)C(F)(F)F.O=c1[nH]ccc2nc(N[C@@H]3CCNC3)nc(Nc3ccc4c(c3)S(=O)(=O)CC4)c12
Return: 58
